System: 559 E. faecalis (GSE)
PROTOCOL_DESCRIPTION: MIC, broth microdilution in Meuller-Hinton broth (NCCLS)
Assay type: cell-based, Enterococcus faecalis
CONDITION_PARAMETERS: glycopeptide-sensitive clinical isolate
ENDPOINT: MIC 559 E. faecalis (GSE) (µg/mL)
Expressed in µg/mL, but write only the number.

Examples with answers:
| MOLECULE | ENDPOINT | QUANTITATIVE_RESULT |
| --- | --- | --- |
| CNC(CC(C)C)C(=O)NC1C(=O)NC(CC(N)=O)C(=O)NC2C(=O)NC3C(=O)NC(C(=O)NC(C(=O)O)c4cc(O)cc(O)c4-c4cc3ccc4O)C(OC3CC(C)(N)C(O)C(C)O3)c3ccc(cc3)Oc3cc2cc(c3OC2OC(CO)C(O)C(O)C2OC2CC(C)(NC(=O)CNCc3cc4ccccc4c4ccccc34)C(O)C(C)O2)Oc2ccc(cc2Cl)C1O (stereo not drawn) | MIC 559 E. faecalis (GSE) | 2 |
| CCCCc1ccc(CN[C@@H](CCCN)C(=O)NC2(C)CC(OC3C(Oc4c5cc6cc4Oc4ccc(cc4Cl)C(O)C(NC(=O)C(CC(C)C)NC)C(=O)NC(CC(N)=O)C(=O)NC6C(=O)NC4C(=O)NC(C(=O)NC(C(=O)O)c6cc(O)cc(O)c6-c6cc4ccc6O)C(OC4CC(C)(N)C(O)C(C)O4)c4ccc(cc4)O5)OC(CO)C(O)C3O)OC(C)C2O)cc1 (stereo partly drawn) | MIC 559 E. faecalis (GSE) | 1 |
| CNC(CC(C)C)C(=O)NC1C(=O)NC(CC(N)=O)C(=O)NC2C(=O)NC3C(=O)NC(C(=O)NC(C(=O)O)c4cc(O)cc(O)c4-c4cc3ccc4O)C(O)c3ccc(c(Cl)c3)Oc3cc2cc(c3OC2OC(CO)C(O)C(O)C2OC2CC(C)(NC(=O)CNCc3ccc(-c4ccc(Cl)cc4)cc3)C(O)C(C)O2)Oc2ccc(cc2Cl)C1O (stereo not drawn) | MIC 559 E. faecalis (GSE) | 0.5 |
| CCCCc1ccc(CNCC(=O)NC2(C)CC(OC3C(Oc4c5cc6cc4Oc4ccc(cc4Cl)C(O)C4NC(=O)C(NC(=O)C6NC(=O)C(CC(N)=O)NC(=O)C(NC(=O)C(CC(C)C)NC)C(O)c6ccc(c(Cl)c6)O5)c5ccc(O)c(c5)-c5c(O)cc(O)cc5C(C(=O)O)NC4=O)OC(CO)C(O)C3O)OC(C)C2O)cc1 (stereo not drawn) | MIC 559 E. faecalis (GSE) | 1 |
| CNC(CC(C)C)C(=O)NC1C(=O)NC(CC(N)=O)C(=O)NC2C(=O)NC3C(=O)NC(C(=O)NC(C(=O)O)c4cc(O)cc(O)c4-c4cc3ccc4O)C(OC3CC(C)(N)C(O)C(C)O3)c3ccc(cc3)Oc3cc2cc(c3OC2OC(CO)C(O)C(O)C2OC2CC(C)(NC(=O)CNCc3ccc(F)cc3)C(O)C(C)O2)Oc2ccc(cc2Cl)C1O (stereo not drawn) | MIC 559 E. faecalis (GSE) | 4 |

Pending molecule:
[in] Any idea what its MIC 559 E. faecalis (GSE) is? The molecule is CNC(CC(C)C)C(=O)NC1C(=O)NC(CC(N)=O)C(=O)NC2C(=O)NC3C(=O)NC(C(=O)NC(C(=O)O)c4cc(O)cc(O)c4-c4cc3ccc4O)C(O)c3ccc(c(Cl)c3)Oc3cc2cc(c3OC2OC(CO)C(O)C(O)C2OC2CC(C)(NC(=O)CNc3ccc4ccccc4n3)C(O)C(C)O2)Oc2ccc(cc2Cl)C1O (stereo not drawn)
[out] 2
